Tested system: JAK2 (catalytic domain, His-tag) (Homo sapiens)
Construct: All four purified enzymes contain only the catalytic domain; His (N); purchased Carna Biosciences, Inc; host or cells: baculovirus expression system
Sequence (O60674 849-1124 limits assumed): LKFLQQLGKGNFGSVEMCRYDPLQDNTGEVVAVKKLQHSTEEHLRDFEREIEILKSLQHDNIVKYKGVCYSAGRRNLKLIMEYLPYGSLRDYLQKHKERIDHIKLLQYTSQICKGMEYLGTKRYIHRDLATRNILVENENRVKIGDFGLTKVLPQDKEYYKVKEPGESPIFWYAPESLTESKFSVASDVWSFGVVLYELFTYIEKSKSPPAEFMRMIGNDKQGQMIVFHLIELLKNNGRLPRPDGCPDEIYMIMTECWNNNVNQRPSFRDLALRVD
Assay summary: JAK kinase assay (HTRF, phosphorylation of TK substrate-biotin), JAK2
Format: biochemical
Reported conditions: ATP at Km (4 μM); read-out: JAK2 kinase inhibitory activity (EC50 indicator)
Catalogue of EC50 values

Consider the worked cases shown below.
O=C(CC(F)(F)F)N1[C@@H]2CC[C@H]1CN(c1ncnc3[nH]ccc13)C2; 0.1 to 0.5 µM
C#CCOC(=O)N1[C@@H]2CC[C@H]1CN(c1ncnc3[nH]ccc13)C2; 0.1 to 0.5 µM
O=C(CC1CCCC1)N1[C@@H]2CC[C@H]1CN(c1ncnc3[nH]ccc13)C2; < 0.1 µM
O=C(c1cccc(OC(F)(F)F)c1)N1CCN(c2ncnc3[nH]ccc23)CC12CC2; < 0.1 µM
N#Cc1ccc(C(F)(F)C(=O)N2CCN(c3ncnc4[nH]ccc34)CC23CC3)cc1; < 0.1 µM
N#Cc1csc(C(=O)N2C3CCC2CN(c2ncnc4[nH]ccc24)C3)c1; < 0.1 µM

**Q:** Jot down EC50 (JAK2 (catalytic domain, His-tag) (Homo sapiens)) of CC1CN(C(=O)c2cccc(C#N)c2)C2(CC2)CN1c1ncnc2[nH]ccc12 (stereo not drawn) .
**A:** < 0.1 µM

**Q:** Please indicate recorded EC50 of COC(=O)c1cc2c(N3CCN(C(=O)Cc4ccc(CC#N)cc4)C4(CC4)C3)ncnc2[nH]1 measured with JAK2 (catalytic domain, His-tag) (Homo sapiens).
**A:** > 0.5 µM

**Q:** Report EC50 under test system JAK2 (catalytic domain, His-tag) (Homo sapiens) for O=C(c1cnccn1)N1CCN(c2ncnc3[nH]ccc23)CC12CC2 .
**A:** < 0.1 µM
